# measurement.target: Glucagon-like peptide-1 receptor extracellular domain
# assay.comment: SPR; Biacore 8K, according to the user's manual; who was immobilised and the conditions are not stated
With a cut-off of 1 µM, any Kd strictly below it is called 1; any Kd meeting it or above is called 0.

{"binder": "YSHAYLEETQRF [PEP05]", "class": 0}
{"binder": "YSHAYLEETQRFGGPSSGAPPPS [PEP11]", "class": 0}
{"binder": "EFIATAWLVKQTGGPSSGAPPPS [PEP12]", "class": 0}
{"binder": "KEYSSPAATQRFGGPSSGAPPPS [PEP08]", "class": 1}
{"binder": "FFYSSPSAYLETGGPSSGAPPPS [PEP07]", "class": 1}
{"binder": "FFYSSPSAYLET [PEP01]", "class": 1}

Kindly review the next binder as well.
Incoming: Could you please tell me whether Kd recorded for FTSEGTSSYLET [PEP04] is less than 1 µM?
Outgoing: 0
